Assay: chemical genetic growth profiling, strain panel (AID 1159580);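 note: tested at 20 µM; growth read once vehicle control cultures reached saturation at 30 °C; 1 = growth at the plate median or of vehicle wells; lower values mean less growth of the strain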
Conditions: S. cerevisiae deletion strains, growth OD, locus YBR229C, strain ROT2
In all, about 5,500 compounds went through this assay and about 2,000 (36%) were called active. About 18% were inconclusive and are not listed. Cut-off read from the data, not from the text of the source: active = normalized growth mostly below about 0.91 (no sharp cut-off); inconclusive = no clear call, values can overlap the other calls; inactive = mostly above about 0.92. The list shows a part of the results.
Pick from active, inactive when you respond.

Solved cases (5 shown):
INSERT INTO assay_data (compound, cat) VALUES
  ('Nc1nccs1', 'inactive'),
  ('CC1=CC(=O)CC(C)(C)C1(O)/C=C/C(C)=C\C(=O)O (stereo unspecified)', 'inactive'),
  ('COC(=O)c1cc(OC)c(OC)cc1NS(=O)(=O)c1ccc(C)cc1', 'inactive'),
  ('S=c1[nH]c2ccccc2s1', 'inactive'),
  ('CCOP(=S)(OCC)Oc1ccc2c(C)c(Cl)c(=O)oc2c1', 'inactive');

Could you check what this test reported for COC(=O)c1ccc(C#Cc2ccccc2)o1 ? active

Recorded call for COc1cc(C(=O)O)cc(OC)c1O ? inactive

Recorded call for Nc1ccc(S(=O)(=O)Nc2nccs2)cc1 ? inactive

Lab log entry: O=C1NC(c2c(F)cccc2Cl)Nc2ccccc21 (stereo unspecified) — outcome as called in the assay? inactive

Record lookup: outcome of this test for Cc1cccc(CN2CCN(C(c3ccccc3)c3ccc(Cl)cc3)CC2)c1 (stereo unspecified) ? inactive

What is the recorded call for this compound in the test? O=C(Nc1cc(C(F)(F)F)cc(C(F)(F)F)c1)C(Sc1ccccn1)c1ccccc1 (stereo unspecified) inactive

Any idea what this test logged for BrC12CC3CC(CC(C3)C1)C2 ? inactive

Give the logged outcome of this assay for the following compound: CC(=O)C1=C(O)C2C3c4c[nH]c5cccc(c45)CC3C(C)(C)N2C1=O (stereo unspecified) inactive

Returns: the outcome recorded for COC(=O)c1ccc(S(=O)(=O)NCc2ccccc2)n1C in this assay. inactive

For O=C1N=C(O)CN1/N=C\c1ccc(-c2ccc([N+](=O)[O-])cc2)o1 , which call appears in the assay record? inactive

Which outcome was entered for the compound O=C1CN(/N=C\c2ccc([N+](=O)[O-])o2)C(=O)N1 in this test? inactive

# outcome recorded in this test, key = CC(C)(C)OC(=O)N1CCN(Cc2ccccc2)CC1 inactive

Look up the recorded call for CCNS(=O)(=O)c1cc(Cl)sc1Cl in this test. inactive

Recorded test call requested for COc1ccccc1NC(=O)N1CCCN(C(=O)c2cccs2)CC1 inactive

Record request — test call for NC(=O)N/N=C\c1ccc([N+](=O)[O-])o1 inactive

I would be grateful if you could indicate the recorded call for O=C1CC(c2ccccc2)=NO1 . active

Identify the outcome logged in this assay for the compound shown: COc1nc(N)nc(SC)n1 inactive

Hello, I am checking results. What call was entered for c1ccc(CSC2=NCCCN2)cc1 ? inactive

Dear colleague, could you share the recorded outcome for O=C(O)CCNC(=S)Nc1cccc(C(F)(F)F)c1 when you have a moment? inactive

Call for entry CC[C@]12CCCN3CCc4c(n(c5ccccc45)[C@](O)(C(=O)OC)C1)[C@@H]32 : inactive

Which outcome was assigned to C[C@@]12C(=O)OC(=O)[C@]1(C)C1CCC2O1 in this test? active

====

Experiment: chemical genetic growth profiling, strain panel (AID 1159580)
Settings: S. cerevisiae deletion strains, growth OD, locus YNL175C, strain NOP13, stronger effect = lower value
Hit rate of the full screen: of about 5,500 compounds, about 2,000 (36%) were called active. About 18% were inconclusive and are not listed. Some of the results follow.
Property: normalized growth; scope: individual compounds
Output: the number by itself.

INSERT INTO assay_data (compound, recorded_measurement) VALUES
  ('COc1ccc(/C=C/C(=O)Nc2ccccc2C(=O)O)cc1OC', 0.979);

Which measured normalized growth value corresponds to COc1ccccc1OCC(O)CN1CCN(CC(=O)Nc2c(C)cccc2C)CC1 (stereo unspecified) ? 1.01

# get_value(readout='normalized growth', item= O=C(c1ccc2c(c1)OCCO2)N1CCCCC1 ) 0.992

Item under review: CC(C)COC(=O)OCN1C(=O)CN(CCN2CC(=O)N(COC(=O)OCC(C)C)C(=O)C2)CC1=O . Reported normalized growth? 1

May I ask what normalized growth has been recorded for CCn1cc(C(=O)O)c(=O)c2ccc(Cc3ccccc3)nc21 ? 0.972

Would you kindly share the measured normalized growth for CCOC(=O)Nc1ccc(NCc2ccc(F)cc2)nc1N ? 1.01

Report normalized growth for COC(=O)C(C)(N)Cc1ccc(O)cc1 (stereo unspecified) please. 0.996

Dear colleague, I am looking for the recorded normalized growth of the following compound: COc1ccccc1N1CCNCC1 0.992

I have this compound here, CN[C@H](CC(C)C)C(=O)N[C@H]1C(=O)N[C@@H](CC(N)=O)C(=O)N[C@H]2C(=O)N[C@H]3C(=O)N[C@H](C(=O)N[C@H](C(=O)O)c4cc(O)cc(O)c4-c4cc3ccc4O)[C@H](O)c3ccc(c(Cl)c3)Oc3cc2cc(c3O[C@@H]2O[C@H](CO)[C@@H](O)[C@H](O)[C@H]2O[C@H]2C[C@](C)(N)[C@H](O)[C@H](C)O2)Oc2ccc(cc2Cl)[C@H]1O , and I need its recorded normalized growth. 1.01

====

Assay: chemical genetic growth profiling, strain panel (AID 1159580);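 note: tested at 20 µM; growth read once vehicle control cultures reached saturation at 30 °C; 1 = growth at the plate median or of vehicle wells; lower values mean less growth of the strain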
Details: S. cerevisiae deletion strains, growth OD, locus YGL248W, strain PDE1
Screen size: about 5,500 compounds; about 2,000 (36%) were called active. Inconclusive results (about 18%) are left out. Rule as the data show it: active = normalized growth mostly below about 0.91 (no sharp cut-off); inconclusive = no clear call, values can overlap the other calls; inactive = mostly above about 0.92. This is one part of the list.
# valid calls are active, inactive; nothing else

See these solved cases before continuing.
INSERT INTO assay_data (compound, cat) VALUES
  ('C[C@@]12C(=O)OC(=O)[C@]1(C)C1CCC2O1', 'inactive'),
  ('C[C@@H]1CC2C3CCC4=CC(=O)C=C[C@]4(C)[C@@]3(F)[C@@H](O)C[C@]2(C)[C@@]1(O)C(=O)COP(=O)(O)O (some centres not stated)', 'inactive'),
  ('CN(C)CCCO[C@H]1[C@@H](C(O)CO)OC2OC(C)(C)O[C@@H]21 (some centres not stated)', 'inactive'),
  ('C=CCc1cc(OC)c2c(c1OC)OCO2', 'inactive'),
  ('CCOC(=O)CCCCCCCCCCCCC1C=CCC1 (configuration not stated)', 'active');

Lab note: next compound to report on.
GET /call?item= O=C(O)CCCCCCCCCCCCC1C=CCC1 (configuration not stated) returns the recorded outcome of this test. active

====

Experiment: chemical genetic growth profiling, strain panel (AID 1159580);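 note: tested at 20 µM; growth read once vehicle control cultures reached saturation at 30 °C; 1 = growth at the plate median or of vehicle wells; lower values mean less growth of the strain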
Details: S. cerevisiae deletion strains, growth OD, locus YLR342W, strain FKS1
The campaign covered roughly 5,500 compounds. About 2,000 (36%) were called active. About 18% were inconclusive and are not listed. Rule as the data show it: active = normalized growth mostly below about 0.91 (no sharp cut-off); inconclusive = no clear call, values can overlap the other calls; inactive = mostly above about 0.92. The list shows a part of the results.
Just give me one of these, please: True for active, False for inactive

Completed entries (count: 4):
INSERT INTO results (compound, cat) VALUES
  ('CC(=O)O[C@H]1C[C@@H](OC(C)=O)C(C)(C)C2C[C@@H](OC(C)=O)[C@]3(C)C(CC[C@@]4(C)[C@H](c5ccoc5)C(=O)[C@H]5O[C@]543)[C@]21C (stereo partly specified)', 'False'),
  ('CC12CCC(CC1)C(C)(C)O2', 'False'),
  ('COc1cc(/C=C/C(=O)O)cc(OC)c1OC', 'False'),
  ('O=C(NC(=O)c1c(F)cccc1F)Nc1cc(Cl)c(OC(F)(F)C(F)C(F)(F)F)cc1Cl (stereo unspecified)', 'False');

Field: outcome | Entry: COc1ccc(C=CC(=O)c2ccc(O)cc2O)cc1OC False

Which outcome was entered for the compound COc1ccc(/C=C/C(=O)O)cc1OC in this test? False

Dear all, I need the recorded test outcome for C[C@@H]1CC2C3CCC4=CC(=O)C=C[C@]4(C)[C@@]3(F)[C@@H](O)C[C@]2(C)[C@@]1(O)C(=O)COP(=O)(O)O (stereo partly specified) , thank you. False

====

Experiment: chemical genetic growth profiling, strain panel (AID 1159580);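 note: tested at 20 µM; growth read once vehicle control cultures reached saturation at 30 °C; 1 = growth at the plate median or of vehicle wells; lower values mean less growth of the strain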
Details: S. cerevisiae deletion strains, growth OD, locus YOR080W, strain dia2
Screen size: about 5,500 compounds; about 2,000 (36%) were called active. Another 18% or so got no clear call; they are omitted. Cut-off read from the data, not from the text of the source: active = normalized growth mostly below about 0.91 (no sharp cut-off); inconclusive = no clear call, values can overlap the other calls; inactive = mostly above about 0.92. The list shows a part of the results.
Please reply with one of these outcomes: active, inactive

For orientation, consider the following solved cases.
INSERT INTO results (molecule, cat) VALUES
  ('NC(=O)c1ccc(N)nc1', 'inactive'),
  ('O=C(/C=C/c1ccc(O)c(O)c1)O[C@@H]1C[C@](O)(C(=O)O)C[C@@H](O)[C@H]1O', 'inactive'),
  ('COc1ccc(CN(CCN(C)C)c2ncccn2)cc1', 'inactive'),
  ('COc1ccc(/C=C/C(=O)c2ccc(O)cc2O)cc1', 'active'),
  ('CC12CCC3C(CC=C4CC(O)CCC43C)C1CCC2=O (configuration not stated)', 'inactive');

Per the assay record, what outcome was assigned to CCOC(N)=O ? inactive

Dear all, I need the recorded test outcome for CCCN(CCC)C(=O)C(CCC(=O)O)NC(=O)c1ccccc1 (configuration not stated) , thank you. inactive

Can you look up the reported call for CC(=O)O[C@H]1CC[C@@]2(C)C(=CCC3C2CC[C@@]2(C)C3CC[C@@H]2C(C)CCCC(C)C)C1 (some centres not stated) for me? inactive

Hi team, can someone confirm the assay call for OC/C=C/c1ccc(O)c(O)c1 ? inactive

What did the test return for O=C(O)CCC(=O)c1ccc(-c2ccccc2)cc1 ? inactive
